Test Target: T1, CEACAM5 (R&D Systems, 4128-CM-050) (human, UniProt P06731 35-685)
T1 construct: Immobilised on the ELISA plate; also called human CEACAM5
T1 sequence (looked up): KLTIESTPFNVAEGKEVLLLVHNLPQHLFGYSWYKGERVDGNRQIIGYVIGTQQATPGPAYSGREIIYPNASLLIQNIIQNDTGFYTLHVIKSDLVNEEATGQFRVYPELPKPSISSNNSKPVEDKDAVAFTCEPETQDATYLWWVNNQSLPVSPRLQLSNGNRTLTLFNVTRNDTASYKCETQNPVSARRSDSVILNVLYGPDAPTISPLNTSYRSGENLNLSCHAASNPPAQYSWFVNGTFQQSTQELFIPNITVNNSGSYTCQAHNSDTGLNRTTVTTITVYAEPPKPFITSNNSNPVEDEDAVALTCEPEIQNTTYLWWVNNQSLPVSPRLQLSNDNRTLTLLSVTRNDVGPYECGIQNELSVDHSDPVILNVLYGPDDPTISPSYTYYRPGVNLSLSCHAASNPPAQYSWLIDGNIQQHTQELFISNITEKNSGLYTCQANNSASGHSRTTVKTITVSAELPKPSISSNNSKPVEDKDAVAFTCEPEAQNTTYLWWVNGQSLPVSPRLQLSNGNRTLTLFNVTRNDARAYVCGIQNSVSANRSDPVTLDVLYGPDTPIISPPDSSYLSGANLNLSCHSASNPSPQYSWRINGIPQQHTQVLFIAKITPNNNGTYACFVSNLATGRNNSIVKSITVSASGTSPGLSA
Assay Remarks: ELISA on immobilised CEACAM5, 4-parameter fit, duplicate
Experimental: Each anti-human CEACAM5 antibody Fab fragment conjugate prepared in Example 2 was subjected to ELISA to evaluate the binding activity thereof to CEACAM5. […] The substrate was incubated at room temperature for 15 minutes, and then a signal value thereof was measured using an Envision counter (PerkinElmer, Inc.). The test for each antibody was carried out in duplicate, and an EC₅₀ value was calculated using a 4-parameter logistic curve model.
Measurement Name: EC50 (nM)
Response body: numeric value in nM, unit text excluded.

Past entries and their recorded results:
(Y-S1-X)p-Fab^2 with Y Gd/DOT[A], S1 - (bond), X -Gly-Ile-NH-(CH2)2-Z1(#N)- (Fab, V domains shown, labeling may sit on this chain; sites not stated; labeling portion (MW 852) on amino groups of the Fab, sites and chain not stated; 1-3 per Fab by MS, also called Ex-No 3; conjugate 3) VH: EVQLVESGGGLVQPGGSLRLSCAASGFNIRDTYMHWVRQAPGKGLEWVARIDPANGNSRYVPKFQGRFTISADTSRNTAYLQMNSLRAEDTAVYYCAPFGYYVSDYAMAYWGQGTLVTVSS VL: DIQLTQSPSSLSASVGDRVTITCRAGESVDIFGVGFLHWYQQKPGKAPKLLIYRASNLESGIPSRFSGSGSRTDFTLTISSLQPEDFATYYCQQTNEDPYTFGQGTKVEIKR ... 0.13
[Gd/4arm-DOTA-CH2-(1,4-Ph)-NH-C(═S)]p-Fab^2 (Fab, V domains shown, labeling may sit on this chain; sites not stated; labeling portion (MW 706) on amino groups of the Fab, sites and chain not stated; 1 per Fab by MS, also called Ex-No 48; conjugate 48) VH: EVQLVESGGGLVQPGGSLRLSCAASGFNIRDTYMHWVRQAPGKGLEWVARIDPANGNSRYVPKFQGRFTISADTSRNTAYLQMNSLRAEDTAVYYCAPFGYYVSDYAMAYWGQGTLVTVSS VL: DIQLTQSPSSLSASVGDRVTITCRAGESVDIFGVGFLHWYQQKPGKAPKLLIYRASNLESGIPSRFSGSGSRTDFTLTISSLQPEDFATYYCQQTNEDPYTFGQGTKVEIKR ... 0.21
(Y-S1-X)p-Fab^2 with Y Gd/DOTA, S1 -NH-(CH2CH2O)3-CH2-C(═O)-NH-CH2-(1,3-Ph)-C(═O)-, X -Gly-Tyr*-CH-C(═O)-NH-(CH2)2-Z1(#S) (Fab, V domains shown, labeling may sit on this chain; sites not stated; labeling portion (MW 1384) on amino groups of the Fab, sites and chain not stated; 1-3 per Fab by MS, also called Ex-No 39; conjugate 39) VH: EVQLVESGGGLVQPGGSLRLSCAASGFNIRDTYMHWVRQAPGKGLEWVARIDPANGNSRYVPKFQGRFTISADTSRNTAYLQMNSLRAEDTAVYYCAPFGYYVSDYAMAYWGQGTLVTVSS VL: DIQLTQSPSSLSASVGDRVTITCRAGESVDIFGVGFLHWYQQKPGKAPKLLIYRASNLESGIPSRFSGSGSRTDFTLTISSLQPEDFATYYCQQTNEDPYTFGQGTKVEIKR ... 0.2

## Task Quick one: EC50 of (Y-S1-X)p-Fab^2 with Y Gd/DOTA, S1 -NH-(CH2CH2O)3-CH-C(═O)-NH-CH2-(1,3-Ph)-C(═O)-, X -Gly-Lys*-C(═S)-NH-(1,4-Ph)-NH-C(═S)- (Fab, V domains shown, labeling may sit on this chain; sites not stated; labeling portion (MW 1259) on amino groups of the Fab, sites and chain not stated; 1-3 per Fab by MS, also called Ex-No 44; conjugate 44) VH: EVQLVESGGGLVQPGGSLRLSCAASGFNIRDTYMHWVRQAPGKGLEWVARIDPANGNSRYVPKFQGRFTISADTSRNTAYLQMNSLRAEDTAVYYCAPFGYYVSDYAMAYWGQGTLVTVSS VL: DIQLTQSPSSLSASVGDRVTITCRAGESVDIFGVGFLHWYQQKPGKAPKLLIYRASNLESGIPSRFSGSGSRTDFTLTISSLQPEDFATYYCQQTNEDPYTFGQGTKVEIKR ?
## Result 0.29

## Task Quick one: EC50 of (Y-S1-X)p-Fab^2 with Y Gd/DOTA, S1 - (bond), X -Gly-Val-NH-(CH2)2-Z1(#N)- (Fab, V domains shown, labeling may sit on this chain; sites not stated; labeling portion (MW 838) on amino groups of the Fab, sites and chain not stated; 1-2 per Fab by MS, also called Ex-No 2; conjugate 2) VH: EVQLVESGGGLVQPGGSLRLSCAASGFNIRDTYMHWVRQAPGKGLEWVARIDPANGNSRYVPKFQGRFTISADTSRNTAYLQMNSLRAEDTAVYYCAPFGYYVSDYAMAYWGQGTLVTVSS VL: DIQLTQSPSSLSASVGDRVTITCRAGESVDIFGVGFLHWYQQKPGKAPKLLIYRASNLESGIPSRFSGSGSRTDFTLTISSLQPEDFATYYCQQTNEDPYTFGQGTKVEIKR ?
## Result 0.14
